Please respond with reported shrunken log2 fold change for every item in the list.
- Test system: Escherichia coli TOP10;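 further: peptides expressed intracellularly from a pBAD plasmid library in pooled LB shake-flask culture, induced with 0.3% L-arabinose, DNA abundance read by NGS, three biological replicates, DESeq2 with apeglm shrinkage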
- Assay overview: shrunken log2 fold change of peptide-encoding DNA abundance (4.5 h post-induction vs induction); higher = less antimicrobial activity (less host growth inhibition)
- Condition info: time post-induction: 4.5 h; library: site-saturation at positions 5, 18, 19, 20

Sequence entry	shrunken log2 fold change
RRIRVRPPRLPRPRPRPRFPPRP	0.285
RRIRSRPPRLPRPRPRPGNFPRP	0.00825
RRIRKRPPRLPRPRPRPCCRPRP	0.146
RRIRLRPPRLPRPRPRPDMMPRP	-0.295
RRIRSRPPRLPRPRPRPARYPRP	-0.0163

Give me shrunken log2 fold change for each of these sequences, listed below.
1. RRIRLRPPRLPRPRPRPDPGPRP
2. RRIRYRPPRLPRPRPRPLRCPRP
3. RRIRIRPPRLPRPRPRPITDPRP
4. RRIRMRPPRLPRPRPRPFYHPRP

Result string:
1: -0.146; 2: 0.0617; 3: -0.0192; 4: -0.537

Data origin: the supplement of paper PMC9112550
